Entry source: patent US10556883B2

Target: Recombinant Human ADAM17 catalytic domain (Homo sapiens (Human))
Sequence (P78536 223-474): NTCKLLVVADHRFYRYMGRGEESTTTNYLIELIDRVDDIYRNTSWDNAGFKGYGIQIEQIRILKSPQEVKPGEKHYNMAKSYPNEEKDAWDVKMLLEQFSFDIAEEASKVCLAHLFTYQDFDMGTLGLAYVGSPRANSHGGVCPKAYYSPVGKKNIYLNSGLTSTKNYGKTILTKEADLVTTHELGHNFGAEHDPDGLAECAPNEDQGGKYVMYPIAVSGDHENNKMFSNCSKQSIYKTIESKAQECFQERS
Assay: TACE (ADAM17) isolated enzyme assay, profluorescent peptidic substrate
Conditions: read-out: TACE enz IC50; ADAM17 catalytic domain 500 nM, 40 μM substrate, two hours
Listing: IC50 of selected compounds
observable: IC50 (nM)

* Cc1cc(COc2ccc(S(=O)(=O)NC3(CC(=O)NO)CN(C(=O)N4CCN(C)CC4)C3)cc2)c2ccccc2n1 | 2.8
* Cc1cc(COc2ccc(S(=O)(=O)NC3(C(=O)NO)CN(C(=O)CC4CCC4)C3)cc2)c2ccccc2n1 [Example 26f] | 11.4
* Cc1cc(COc2ccc(S(=O)(=O)NC3(C(=O)NO)CN(C(=O)C(C)C)C3)cc2)c2ccccc2n1 | 5.2
* Cc1cc(COc2ccc(S(=O)(=O)NC3(CC(=O)NO)CN(C(=O)C(C)(C)N(C)C)C3)cc2)c2ccccc2n1 | 3.5
* Cc1cc(COc2ccc(S(=O)(=O)NC3(CC(=O)NO)CN(C(=O)CC(C)(C)C)C3)cc2)c2ccccc2n1 | 8.2
* CCN1CCN(C(=O)N2CC(CC(=O)NO)(NS(=O)(=O)c3ccc(OCc4cc(C)nc5ccccc45)cc3)C2)CC1 [Example 28b] | 5.6
